B1: library; a variant is named by its letters at N, in order (parent)
chain: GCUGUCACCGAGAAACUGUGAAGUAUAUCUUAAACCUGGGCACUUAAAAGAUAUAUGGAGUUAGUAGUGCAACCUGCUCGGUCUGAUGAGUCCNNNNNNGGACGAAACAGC

Variants of: B1
Assay: normalized RNA/DNA level without ligand (relative to sTRSVctl = 100) (log10 (% of sTRSVctl)); HEK293T; ligand: cyclic di-GMP (c-di-GMP-II aptamer); higher = less ribozyme self-cleavage, higher mRNA level
Conditions: reporter: mCherry (pCS4076), ligand present: no
Assign normalized RNA/DNA level without ligand (log10) to each entry below.
One number for each entry.

Example entries and their recorded answers appear below.
>  <chain.sequence>
GCUGUCACCGAGAAACUGUGAAGUAUAUCUUAAACCUGGGCACUUAAAAGAUAUAUGGAGUUAGUAGUGCAACCUGCUCGGUCUGAUGAGUCCAAAACUGGACGAAACAGC [AAAACU]

>  <value.reported>
1.67

$$$$
>  <chain.sequence>
GCUGUCACCGAGAAACUGUGAAGUAUAUCUUAAACCUGGGCACUUAAAAGAUAUAUGGAGUUAGUAGUGCAACCUGCUCGGUCUGAUGAGUCCCACGCUGGACGAAACAGC [CACGCU]

>  <value.reported>
1.72

$$$$
>  <chain.sequence>
GCUGUCACCGAGAAACUGUGAAGUAUAUCUUAAACCUGGGCACUUAAAAGAUAUAUGGAGUUAGUAGUGCAACCUGCUCGGUCUGAUGAGUCCAGGGUGGGACGAAACAGC [AGGGUG]

>  <value.reported>
1.64

$$$$
>  <chain.sequence>
GCUGUCACCGAGAAACUGUGAAGUAUAUCUUAAACCUGGGCACUUAAAAGAUAUAUGGAGUUAGUAGUGCAACCUGCUCGGUCUGAUGAGUCCAAGCCGGGACGAAACAGC [AAGCCG]

>  <value.reported>
1.73

$$$$
>  <chain.sequence>
GCUGUCACCGAGAAACUGUGAAGUAUAUCUUAAACCUGGGCACUUAAAAGAUAUAUGGAGUUAGUAGUGCAACCUGCUCGGUCUGAUGAGUCCGGCCACGGACGAAACAGC [GGCCAC]

>  <value.reported>
1.73

$$$$
>  <chain.sequence>
GCUGUCACCGAGAAACUGUGAAGUAUAUCUUAAACCUGGGCACUUAAAAGAUAUAUGGAGUUAGUAGUGCAACCUGCUCGGUCUGAUGAGUCCUUUUAAGGACGAAACAGC [UUUUAA]

>  <value.reported>
1.72

$$$$

Quick one: give me normalized RNA/DNA level without ligand (log10) for each item below, same order please.
1. GCUGUCACCGAGAAACUGUGAAGUAUAUCUUAAACCUGGGCACUUAAAAGAUAUAUGGAGUUAGUAGUGCAACCUGCUCGGUCUGAUGAGUCCUGAUCGGGACGAAACAGC [UGAUCG]
2. GCUGUCACCGAGAAACUGUGAAGUAUAUCUUAAACCUGGGCACUUAAAAGAUAUAUGGAGUUAGUAGUGCAACCUGCUCGGUCUGAUGAGUCCACAGAGGGACGAAACAGC [ACAGAG]
3. GCUGUCACCGAGAAACUGUGAAGUAUAUCUUAAACCUGGGCACUUAAAAGAUAUAUGGAGUUAGUAGUGCAACCUGCUCGGUCUGAUGAGUCCAAUGAGGGACGAAACAGC [AAUGAG]
4. GCUGUCACCGAGAAACUGUGAAGUAUAUCUUAAACCUGGGCACUUAAAAGAUAUAUGGAGUUAGUAGUGCAACCUGCUCGGUCUGAUGAGUCCGUUAGCGGACGAAACAGC [GUUAGC]
5. GCUGUCACCGAGAAACUGUGAAGUAUAUCUUAAACCUGGGCACUUAAAAGAUAUAUGGAGUUAGUAGUGCAACCUGCUCGGUCUGAUGAGUCCAACCAAGGACGAAACAGC [AACCAA]

Ans:
1.77
1.44
1.54
1.72
1.43

Quick one: give me normalized RNA/DNA level without ligand (log10) for each item below, same order please.
1. GCUGUCACCGAGAAACUGUGAAGUAUAUCUUAAACCUGGGCACUUAAAAGAUAUAUGGAGUUAGUAGUGCAACCUGCUCGGUCUGAUGAGUCCCCGCGGGGACGAAACAGC [CCGCGG]
2. GCUGUCACCGAGAAACUGUGAAGUAUAUCUUAAACCUGGGCACUUAAAAGAUAUAUGGAGUUAGUAGUGCAACCUGCUCGGUCUGAUGAGUCCCCUUCUGGACGAAACAGC [CCUUCU]
3. GCUGUCACCGAGAAACUGUGAAGUAUAUCUUAAACCUGGGCACUUAAAAGAUAUAUGGAGUUAGUAGUGCAACCUGCUCGGUCUGAUGAGUCCAUGUCUGGACGAAACAGC [AUGUCU]
4. GCUGUCACCGAGAAACUGUGAAGUAUAUCUUAAACCUGGGCACUUAAAAGAUAUAUGGAGUUAGUAGUGCAACCUGCUCGGUCUGAUGAGUCCAUGUGUGGACGAAACAGC [AUGUGU]

Ans:
1. 1.73
2. 1.62
3. 1.7
4. 1.53

Quick one: give me normalized RNA/DNA level without ligand (log10) for each item below, same order please.
1. GCUGUCACCGAGAAACUGUGAAGUAUAUCUUAAACCUGGGCACUUAAAAGAUAUAUGGAGUUAGUAGUGCAACCUGCUCGGUCUGAUGAGUCCUCUGGGGGACGAAACAGC [UCUGGG]
2. GCUGUCACCGAGAAACUGUGAAGUAUAUCUUAAACCUGGGCACUUAAAAGAUAUAUGGAGUUAGUAGUGCAACCUGCUCGGUCUGAUGAGUCCCCGUAUGGACGAAACAGC [CCGUAU]

Ans:
1. 1.74
2. 1.5

Q: Any idea what its normalized RNA/DNA level without ligand (log10) is? The variant is GCUGUCACCGAGAAACUGUGAAGUAUAUCUUAAACCUGGGCACUUAAAAGAUAUAUGGAGUUAGUAGUGCAACCUGCUCGGUCUGAUGAGUCCACAGAUGGACGAAACAGC [ACAGAU]
Ans: 1.39

Just for reference, the supplement of paper PMC6757056 is where these values come from.
